In this section we review reported MIC S. pneumo. 1095 values for a set of molecules.
Test system: Streptococcus pneumoniae 1095
Assay type: cell-based
Settings: S. pneumoniae 1095 (ermB); microtiter broth dilution
From the text: The assay described herein includes a panel of bacterial strains assembled to include a variety of target pathogenic species, including representatives of macrolide resistance mechanisms that have been characterized. In many cases, both the macrolide-susceptible parent strain and the macrolide-resistant strain derived from it are available to provide a more accurate assessment of the compound's ability to circumvent the resistance mechanism. […]
property-label: MIC S. pneumo. 1095

1. CCC1OC(=O)C(C)C(=O)C(C)C(OC2OC(C)CC(N(C)C)C2O)C(C)(OC)CC(C)C(=O)C(C)C2N(CC3CCCN3C(=O)c3cc4cccnc4nc3C(F)(F)F)C(=O)OC12C (centres unmarked) [10.40] ... <0.06 µg/mL
2. CCC1OC(=O)C(C)C(=O)C(C)C(OC2OC(C)CC(N(C)C)C2O)C(C)(OC)CC(C)C(=O)C(C)C2N(CC3CCN(Cc4cnn(-c5cccnc5)c4)C3)C(=O)OC12C (centres unmarked) [11.15] ... <0.06 µg/mL
3. CCC1OC(=O)C(C)C(=O)C(C)C(OC2OC(C)CC(N(C)C)C2O)C(C)(OC)CC(C)C(=O)C(C)C2N(CC3CCCN3C(=O)c3cnc4ccccc4c3)C(=O)OC12C (centres unmarked) [10.07] ... <0.06 µg/mL
4. CCC1OC(=O)C(C)C(=O)C(C)C(OC2OC(C)CC(N(C)C)C2O)C(C)(OC)CC(C)C(=O)C(C)C2N(CC3CCN(C(=O)c4ccc5cnccc5n4)C3)C(=O)OC12C (centres unmarked) [13.09] ... >64.00 µg/mL
5. CCC1OC(=O)C(C)C(=O)C(C)C(OC2OC(C)CC(N(C)C)C2O)C(C)(OC)CC(C)C(=O)C(C)C2N(CC3CCCN3C(=O)c3cn4ccccc4n3)C(=O)OC12C (centres unmarked) [10.54] ... <0.06 µg/mL

###

system: Streptococcus pneumoniae 1175; format: cell-based; conditions: S. pneumoniae 1175 (mefA); microtiter broth dilution
property-label: MIC S. pneumo. 1175 (µg/mL)

1. CCC1OC(=O)C(C)C(=O)C(C)C(OC2OC(C)CC(N(C)C)C2O)C(C)(OC)CC(C)C(=O)C(C)C2N(CC3CCN(Cc4ccc(-c5ccccn5)cc4)CC3)C(=O)OC12C (stereo not drawn) ... 1
2. CCC1OC(=O)C(C)C(=O)C(C)C(OC2OC(C)CC(N(C)C)C2O)C(C)(OC)CC(C)C(=O)C(C)C2N(C3CCN(Cc4c[nH]c5ncccc45)C3)C(=O)OC12C (stereo not drawn) ... 0.5
3. CCC1OC(=O)C(C)C(=O)C(C)C(OC2OC(C)CC(N(C)C)C2O)C(C)(OC)CC(C)C(=O)C(C)C2N(CC3CCN(Cc4cnc5ccccc5c4)CC3)C(=O)OC12C (stereo not drawn) ... 0.25

###

tested on: Haemophilus influenzae 1218; test: MIC, microtiter broth dilution (NCCLS M100-S14), H. influenzae 1218 (susceptible); format: cell-based; settings: Haemophilus influenzae 1218
Decision: MIC H. influenzae 1218 beneath 1 µg/mL gives y; MIC H. influenzae 1218 meeting or exceeding 1 µg/mL gives n.

1. CCC1OC(=O)C(C)C(=O)C(C)C(OC2OC(C)CC(N(C)C)C2O)C(C)(OC)CC(C)C(=O)C(C)C2N(C3CN(S(=O)(=O)c4ccc(-c5nnn[nH]5)cc4)C3)C(=O)OC12C (stereo not shown) ... n
2. CCC1OC(=O)C(C)C(=O)C(C)C(OC2OC(C)CC(N(C)C)C2O)C(C)(OC)CC(C)C(=O)C(C)C2N(C3CN(S(=O)(=O)c4cccc5ccccc45)C3)C(=O)OC12C (stereo not shown) ... y
3. CCC1OC(=O)C(C)C(=O)C(C)C(OC2OC(C)CC(N(C)C)C2O)C(C)(OC)CC(C)C(=O)C(C)C2N(C3CN(C(=O)Nc4cccc5nccnc45)C3)C(=O)OC12C (stereo not shown) ... n
4. CCC1OC(=O)C(C)C(=O)C(C)C(OC2OC(C)CC(N(C)C)C2O)C(C)(OC)CC(C)C(=O)C(C)C2N(C3CN(Cc4ccc5c(c4)OCO5)C3)C(=O)OC12C (stereo not shown) ... y
5. CCOc1ccc(S(=O)(=O)N2CC(N3C(=O)OC4(C)C(CC)OC(=O)C(C)C(=O)C(C)C(OC5OC(C)CC(N(C)C)C5O)C(C)(OC)CC(C)C(=O)C(C)C34)C2)cc1C#N (stereo not shown) ... n
6. CCC1OC(=O)C(C)C(=O)C(C)C(OC2OC(C)CC(N(C)C)C2O)C(C)(OC)CC(C)C(=O)C(C)C2N(CC3CN(Cc4cnn5ccccc45)C3)C(=O)OC12C.O=CO (stereo not shown) ... y

Source: patent US7462600B2
